target: PDE4D (Homo sapiens, UniProt Q08499); assay: PDE4D inhibition, IMAP fluorescence polarization protocol; details: recombinant enzyme; mean ± SEM of three measurements
Sequence (Q08499 1-673 isoform Q08499-2): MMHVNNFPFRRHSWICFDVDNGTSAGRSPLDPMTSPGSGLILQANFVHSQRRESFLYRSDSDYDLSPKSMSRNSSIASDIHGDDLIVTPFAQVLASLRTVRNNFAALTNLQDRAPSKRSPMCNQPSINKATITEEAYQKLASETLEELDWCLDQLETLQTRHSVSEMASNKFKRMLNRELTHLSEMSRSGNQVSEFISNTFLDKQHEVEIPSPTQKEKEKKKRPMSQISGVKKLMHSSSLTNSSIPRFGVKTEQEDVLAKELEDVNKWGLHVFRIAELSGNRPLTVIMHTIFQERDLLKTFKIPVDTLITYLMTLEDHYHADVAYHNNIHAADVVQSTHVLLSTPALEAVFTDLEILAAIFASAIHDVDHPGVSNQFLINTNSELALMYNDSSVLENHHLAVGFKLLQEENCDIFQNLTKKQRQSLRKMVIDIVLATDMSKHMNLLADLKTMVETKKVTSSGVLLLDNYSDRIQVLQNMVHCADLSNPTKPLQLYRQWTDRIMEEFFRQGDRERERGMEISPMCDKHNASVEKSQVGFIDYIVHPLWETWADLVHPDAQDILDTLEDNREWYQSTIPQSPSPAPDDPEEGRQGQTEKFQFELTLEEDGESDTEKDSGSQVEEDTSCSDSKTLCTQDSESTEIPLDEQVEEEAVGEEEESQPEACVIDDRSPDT
EXPERIMENTAL ENDPOINT: IC50 (µM)
// units = µM; emit number, no label

Memo: COc1ccc(CCNS(=O)(=O)c2cc3c(cc2C)OCO3)cc1OC , reported IC50: 4.7

---

Give melting point for every item shown.

Memo: C=CCN(CCc1ccc(OC)c(OC)c1)S(=O)(=O)c1ccccc1 [6i (LASSBio-983)] , reported melting point: 64 to 65 °C

Memo: COc1ccc(CCN(C)S(C)(=O)=O)cc1OC [6k (LASSBio-1271)] , reported melting point: 48 to 49 °C

Memo: COc1ccc(CCNS(=O)(=O)c2ccccc2)cc1OC [6f (LASSBio-965)] , reported melting point: 86 to 88 °C

Memo: C=CCN(CCc1ccc(OC)c(OC)c1)S(=O)(=O)c1cc2c(cc1C)OCO2 [6d (LASSBio-961)] , reported melting point: 74 to 76 °C

Memo: COc1ccc(CCNS(C)(=O)=O)cc1OC [6j (LASSBio-985)] , reported melting point: 73 to 74 °C

Memo: COc1ccc(CCN(Cc2ccccc2)S(=O)(=O)c2ccccc2)cc1OC [6h (LASSBio-984)] , reported melting point: 82 to 84 °C

Memo: Cc1cc2c(cc1S(=O)(=O)NCCc1ccccc1)OCO2 [5 (LASSBio-964)] , reported melting point: 88 to 89 °C

Memo: COc1ccc(CCN(C)S(=O)(=O)c2ccccc2)cc1OC [6g (LASSBio-982)] , reported melting point: 67 to 68 °C

Memo: COc1ccc(CCN(C)S(=O)(=O)c2cc3c(cc2C)OCO3)cc1OC [6b (LASSBio-959)] , reported melting point: 92 to 94 °C

Memo: COc1ccc(CCN(Cc2ccccc2)S(=O)(=O)c2cc3c(cc2C)OCO3)cc1OC [6c (LASSBio-960)] , reported melting point: 119 to 121 °C
